Hello, the source for this data is PubChem BioAssay (EPA / NIEHS), in case you need it.

Target: chimpanzee Androgen Receptor (AR), AR (gene 747460)
Experiment: NVS_NR_cAR: NovaScreen (NVS) Nuclear Receptor Binding Assay for chimpanzee Androgen Receptor (AR) (AID 2283346);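 further: radioligand displacement from AR measured by scintillation counting in a cell-free assay; a loss of bound radioligand signal versus DMSO counts as binding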
Records with an inconclusive call do not appear. Activity calls are given as the source filed them. How the source made its calls: active means hit-call score of the fitted dose curve at least 0.9, where 1 is the maximum; inconclusive means response in the unintended direction; inactive means score below 0.9.
Please reply with one of these outcomes: YES for active, NO for inactive

Solved entries (count: 5):
CCOC(=O)c1ccc(N)cc1: NO
Oc1c(Cl)cc(Cl)c(Cl)c1Cc1c(O)c(Cl)cc(Cl)c1Cl: YES
O=CCc1ccccc1: NO
C=C1CC[C@H](O)C/C1=C/C=C1\CCC[C@]2(C)[C@@H]([C@H](C)/C=C/[C@H](C)C(C)C)CC[C@@H]12: YES
OCc1cccc(Oc2ccccc2)c1: YES

Attention now turns to another entry.
Exercise: Please indicate how the test categorized C=C(C)[C@H]1CC=C(C)C(=O)C1 .
Key: NO
